Molecular target: Cholecystokinin receptor type A (Homo sapiens) (UniProt P32238)
Sequence (P32238 whole entry): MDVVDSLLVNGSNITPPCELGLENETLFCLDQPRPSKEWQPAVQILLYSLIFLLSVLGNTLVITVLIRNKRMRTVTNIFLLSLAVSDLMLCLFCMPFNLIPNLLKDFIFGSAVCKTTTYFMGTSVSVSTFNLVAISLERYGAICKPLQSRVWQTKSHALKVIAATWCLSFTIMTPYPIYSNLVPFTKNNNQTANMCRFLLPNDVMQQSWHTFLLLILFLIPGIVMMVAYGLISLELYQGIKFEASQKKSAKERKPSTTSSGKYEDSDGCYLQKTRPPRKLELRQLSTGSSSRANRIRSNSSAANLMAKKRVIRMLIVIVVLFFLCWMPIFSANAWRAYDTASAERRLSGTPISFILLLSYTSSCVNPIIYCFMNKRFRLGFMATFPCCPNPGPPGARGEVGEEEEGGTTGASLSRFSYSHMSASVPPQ
Assay: Agonist activity at human CCK1 receptor relative to cholecystokinin 8
Assay type: functional
MEASURED ENDPOINT: Activity (%)

- CPD SMILES: "CCOc1cccc(-n2cc(C(=O)N3CCN(c4cnc5ccccc5c4)C[C@@H]3CNC(=O)NC)nc2-c2ccc(C)cc2)c1"
  EXPERIMENTAL SYSTEM: "Cholecystokinin receptor type A (Homo sapiens) (UniProt P32238)"
  TEST VALUE: 70
- CPD SMILES: "CCOc1cccc(-n2cc(C(=O)N3CCN(c4cc(C(=O)O)c5ccccc5c4)C[C@H]3C(=O)NC(C)C)nc2-c2ccc(C)cc2)c1"
  EXPERIMENTAL SYSTEM: "Cholecystokinin receptor type A (Homo sapiens) (UniProt P32238)"
  TEST VALUE: 103
- CPD SMILES: "CCOc1cccc(-n2cc(C(=O)N3CCN(c4cc(C(=O)O)c5ccccc5c4)C[C@H]3COCC(=O)O)nc2-c2ccc(C)cc2F)c1"
  EXPERIMENTAL SYSTEM: "Cholecystokinin receptor type A (Homo sapiens) (UniProt P32238)"
  TEST VALUE: 106
- CPD SMILES: "CCOc1cccc(-n2cc(C(=O)N3CCN(c4cnc5ccccc5c4)C[C@H]3CNS(C)(=O)=O)nc2-c2ccc(C)cc2)c1"
  EXPERIMENTAL SYSTEM: "Cholecystokinin receptor type A (Homo sapiens) (UniProt P32238)"
  TEST VALUE: 117
- CPD SMILES: "CCOc1cccc(-n2cc(C(=O)N3CCN(c4cnc5ccccc5c4)C[C@@H]3CNC(C)=O)nc2-c2ccc(C)cc2)c1"
  EXPERIMENTAL SYSTEM: "Cholecystokinin receptor type A (Homo sapiens) (UniProt P32238)"
  TEST VALUE: 91
- CPD SMILES: "CCOc1cccc(-n2cc(C(=O)N3CCN(c4cc(C(=O)O)c5ccccc5c4)C[C@@H]3COCC(=O)O)nc2-c2ccc(C)cc2)c1"
  EXPERIMENTAL SYSTEM: "Cholecystokinin receptor type A (Homo sapiens) (UniProt P32238)"
  TEST VALUE: 85
- CPD SMILES: "CCOc1cccc(-n2cc(C(=O)N3CCN(c4cc(C(=O)O)c5ccccc5c4)C[C@@H]3C(=O)NC(C)C)nc2-c2ccc(C)cc2)c1"
  EXPERIMENTAL SYSTEM: "Cholecystokinin receptor type A (Homo sapiens) (UniProt P32238)"
  TEST VALUE: 94
- CPD SMILES: "CCOc1cccc(-n2cc(C(=O)N3CCN(c4cnc5ccccc5c4)C[C@H]3COCC(=O)O)nc2-c2ccc(C)cc2)c1"
  EXPERIMENTAL SYSTEM: "Cholecystokinin receptor type A (Homo sapiens) (UniProt P32238)"
  TEST VALUE: 93
- CPD SMILES: "CCOc1cccc(-n2cc(C(=O)N3CCN(c4cnc5ccccc5c4)C[C@H]3C(=O)NCC(=O)O)nc2-c2ccc(C)cc2)c1"
  EXPERIMENTAL SYSTEM: "Cholecystokinin receptor type A (Homo sapiens) (UniProt P32238)"
  TEST VALUE: 82
- CPD SMILES: "CCOc1cccc(-n2cc(C(=O)N3CCN(c4cc(C(=O)O)c5ccccc5c4)C[C@@H]3CNS(C)(=O)=O)nc2-c2ccc(C)cc2)c1"
  EXPERIMENTAL SYSTEM: "Cholecystokinin receptor type A (Homo sapiens) (UniProt P32238)"
  TEST VALUE: 72
- CPD SMILES: "CCOc1cccc(-n2cc(C(=O)N3CCN(c4cc(C(=O)O)c5ccccc5c4)C[C@@H]3CNC(C)=O)nc2-c2ccc(C)cc2)c1"
  EXPERIMENTAL SYSTEM: "Cholecystokinin receptor type A (Homo sapiens) (UniProt P32238)"
  TEST VALUE: 67
- CPD SMILES: "CCOc1cccc(-n2cc(C(=O)N3CCN(c4cc(C(=O)O)c5ccccc5c4)C[C@@H]3CNC(=O)NC)nc2-c2ccc(C)cc2)c1"
  EXPERIMENTAL SYSTEM: "Cholecystokinin receptor type A (Homo sapiens) (UniProt P32238)"
  TEST VALUE: 74
- CPD SMILES: "CCOc1cccc(-n2cc(C(=O)N3CCN(c4cnc5ccccc5c4)C[C@@H]3C(=O)NC(C)C)nc2-c2ccc(C)cc2)c1"
  EXPERIMENTAL SYSTEM: "Cholecystokinin receptor type A (Homo sapiens) (UniProt P32238)"
  TEST VALUE: 87
- CPD SMILES: "CCOc1cccc(-n2cc(C(=O)N3CCN(c4cnc5ccccc5c4)C[C@@H]3COCC(=O)O)nc2-c2ccc(C)cc2)c1"
  EXPERIMENTAL SYSTEM: "Cholecystokinin receptor type A (Homo sapiens) (UniProt P32238)"
  TEST VALUE: 96
- CPD SMILES: "CCOc1cccc(-n2cc(C(=O)N3CCN(c4cnc5ccccc5c4)C[C@@H]3COC(C)=O)nc2-c2ccc(C)cc2)c1"
  EXPERIMENTAL SYSTEM: "Cholecystokinin receptor type A (Homo sapiens) (UniProt P32238)"
  TEST VALUE: 104
- CPD SMILES: "CCOc1cccc(-n2cc(C(=O)N3CCN(c4cc(C(=O)O)c5ccccc5c4)C[C@H]3C(=O)NC(C)C)nc2-c2ccc(C)cc2F)c1"
  EXPERIMENTAL SYSTEM: "Cholecystokinin receptor type A (Homo sapiens) (UniProt P32238)"
  TEST VALUE: 94

Origin of measurements: ChEMBL document CHEMBL1157349
